target: ~100 representative kinases (Homo sapiens); construct: Recombinant protein kinase domains with a concentration of 2 μM; test: DSF 100 kinase selectivity screen; format: binding; conditions: Protein CSNK1E; average of three replicates;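 note: compound tested at 20 µM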
measurement type: dTm (K)

{"compound": "O=C(Nc1ccccc1)C1(C(=O)Nc2cccc(-c3c[nH]c4ncnc(N5CCOCC5)c34)c2)CC1 [Compound 12]", "measurement type": "dTm", "unit symbol": "K", "recorded number": 3.99}
{"compound": "CC(C)(C)c1cc(NC(=O)Nc2cccc(-c3c[nH]c4ncnc(N5CCOCC5)c34)c2)n(-c2ccc3ncccc3c2)n1 [Compound 28]", "measurement type": "dTm", "unit symbol": "K", "recorded number": 1.81}
{"compound": "Cc1cc(NC(=O)C2(C(=O)Nc3cccc(-c4c[nH]c5ncnc(N6CCOCC6)c45)c3)CC2)ccc1F [Compound 20]", "measurement type": "dTm", "unit symbol": "K", "recorded number": 6.52}

[A] O=C(Nc1cccc(-c2c[nH]c3ncnc(N4CCOCC4)c23)c1)c1cccn(-c2ccc(F)cc2)c1=O [Compound 4]
[B] COc1ccc(NC(=O)C2(C(=O)Nc3cccc(-c4c[nH]c5ncnc(N6CCOCC6)c45)c3)CC2)cc1 [Compound 16]
[C] CC(=O)N1CCN(c2nc(Cl)nc3[nH]cc(-c4cccc(NC(=O)Nc5cc(C(C)(C)C)nn5-c5ccc(C)cc5)c4)c23)CC1 [Compound 31]
Returns the items ordered by dTm, from maximum to minimum. Would you mind listing the labels in the order requested?
A, B, C

* * *

Target: ~100 representative kinases (Homo sapiens, UniProt O14936)
Construct: Recombinant protein kinase domains with a concentration of 2 μM
Sequence (O14936 1-926): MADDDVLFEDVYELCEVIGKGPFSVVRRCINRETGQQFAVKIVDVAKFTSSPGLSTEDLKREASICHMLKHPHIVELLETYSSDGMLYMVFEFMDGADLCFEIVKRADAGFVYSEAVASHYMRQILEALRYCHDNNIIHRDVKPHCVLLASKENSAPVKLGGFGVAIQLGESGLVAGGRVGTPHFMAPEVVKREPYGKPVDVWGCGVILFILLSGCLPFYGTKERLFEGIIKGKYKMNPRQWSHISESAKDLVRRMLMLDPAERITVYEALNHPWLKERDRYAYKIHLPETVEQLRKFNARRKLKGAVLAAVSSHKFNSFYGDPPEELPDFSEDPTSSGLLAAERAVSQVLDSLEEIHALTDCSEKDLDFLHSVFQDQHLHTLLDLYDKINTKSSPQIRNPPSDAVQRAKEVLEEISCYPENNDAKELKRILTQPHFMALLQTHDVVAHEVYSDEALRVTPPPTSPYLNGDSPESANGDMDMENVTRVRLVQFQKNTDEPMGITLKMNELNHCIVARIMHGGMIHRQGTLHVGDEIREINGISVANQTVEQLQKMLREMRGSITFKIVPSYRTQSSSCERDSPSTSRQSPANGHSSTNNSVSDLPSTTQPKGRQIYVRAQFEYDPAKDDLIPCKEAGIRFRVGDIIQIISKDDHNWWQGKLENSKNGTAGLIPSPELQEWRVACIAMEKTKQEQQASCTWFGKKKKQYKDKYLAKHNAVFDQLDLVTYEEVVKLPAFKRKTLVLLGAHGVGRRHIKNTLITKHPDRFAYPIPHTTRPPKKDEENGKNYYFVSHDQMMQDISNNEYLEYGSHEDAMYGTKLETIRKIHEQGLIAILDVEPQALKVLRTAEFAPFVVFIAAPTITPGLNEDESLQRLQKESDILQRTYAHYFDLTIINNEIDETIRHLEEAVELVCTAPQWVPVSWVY
Assay: DSF 100 kinase selectivity screen;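 note: compound tested at 20 µM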
Type: binding
Conditions: Protein CASK; average of three replicates
measurement type: dTm (K)

{"compound": "O=C(Nc1cccc(-c2c[nH]c3ncnc(N4CCOCC4)c23)c1)C1(C(=O)Nc2ccc(F)c(Br)c2F)CC1 [Compound 26]", "dTm (K)": 1.04}

[P] O=C(Nc1ccc(Cl)cc1)C1(C(=O)Nc2cccc(-c3c[nH]c4ncnc(N5CCOCC5)c34)c2)CC1 [Compound 13]
[Q] Cc1ccc(-n2nc(C(C)(C)C)cc2NC(=O)Nc2cccc(-c3c[nH]c4ncnc(N5CCOCC5)c34)c2)cc1 [Compound 29]
[R] COc1cc(S(C)(=O)=O)ccc1Nc1nc(N(C)C)c2c(Cl)c[nH]c2n1 [Compound 37]
[S] CCc1ccc(NC(=O)C2(C(=O)Nc3cccc(-c4c[nH]c5ncnc(N6CCOCC6)c45)c3)CC2)cc1 [Compound 15]
Returns the items ordered by dTm, from maximum to minimum. Would you mind listing the labels in the order requested?
P, S, Q, R
(P: 0.70 K, S: 0.36 K, Q: 0.14 K, R: -0.21 K)

[A] Cc1cc(NC(=O)C2(C(=O)Nc3cccc(-c4c[nH]c5ncnc(N6CCOCC6)c45)c3)CC2)ccc1F [Compound 20]
[B] CCNc1nc(Nc2cc(F)c(C(=O)N3CCOCC3)cc2OC)ncc1C(F)(F)F [GNE-7915]
[C] Cc1cc(NC(=O)C2(C(=O)Nc3ccc(F)cc3)CC2)cc(-c2c[nH]c3ncnc(N4CCOCC4)c23)c1 [Compound 6]
I would appreciate it if you could sort these 3 compounds by dTm, starting from the smallest number. Would you mind listing the labels in the order requested?
A, B, C
(A: 0.17 K, B: 0.33 K, C: 0.76 K)

[I] COc1ccc(NC(=O)C2(C(=O)Nc3cccc(-c4c[nH]c5ncnc(N6CCOCC6)c45)c3)CC2)cc1 [Compound 16]
[II] O=C(Nc1cccc(-c2c[nH]c3ncnc(N4CCOCC4)c23)c1)C1(C(=O)Nc2ccc(F)c(Cl)c2)CC1 [Compound 18]
Compare the recorded dTm of I and II ; state which is larger. # respond with the chosen item's label
II

[P] Cc1ccc(NC(=O)C2(C(=O)Nc3cccc(-c4c[nH]c5ncnc(N6CCOCC6)c45)c3)CC2)cc1 [Compound 14]
[Q] O=C(Nc1cc(F)cc(Br)c1)C1(C(=O)Nc2cccc(-c3c[nH]c4ncnc(N5CCOCC5)c34)c2)CC1 [Compound 27]
[R] Cc1cc(F)ccc1NC(=O)C1(C(=O)Nc2cccc(-c3c[nH]c4ncnc(N5CCOCC5)c34)c2)CC1 [Compound 24]
[S] O=C(Nc1cccc(-c2c[nH]c3ncnc(N4CCOCC4)c23)c1)C1(C(=O)Nc2cccc3c2CCC3)CC1 [Compound 11]
[T] Cc1ccc(-n2nc(C(C)(C)C)cc2NC(=O)Nc2cccc(-c3c[nH]c4nc(Cl)nc(N5CCOCC5)c34)c2)cc1 [Compound 30]
Returns the items ordered by dTm, from maximum to minimum. Would you mind listing the labels in the order requested?
Q, P, R, T, S
(Q: 1.15 K, P: 0.19 K, R: -0.0179 K, T: -0.47 K, S: -5.15 K)
